Data credit: ChEMBL document CHEMBL1201862

Target: Microphthalmia-associated transcription factor (Homo sapiens, UniProt O75030)
Sequence (O75030 whole entry): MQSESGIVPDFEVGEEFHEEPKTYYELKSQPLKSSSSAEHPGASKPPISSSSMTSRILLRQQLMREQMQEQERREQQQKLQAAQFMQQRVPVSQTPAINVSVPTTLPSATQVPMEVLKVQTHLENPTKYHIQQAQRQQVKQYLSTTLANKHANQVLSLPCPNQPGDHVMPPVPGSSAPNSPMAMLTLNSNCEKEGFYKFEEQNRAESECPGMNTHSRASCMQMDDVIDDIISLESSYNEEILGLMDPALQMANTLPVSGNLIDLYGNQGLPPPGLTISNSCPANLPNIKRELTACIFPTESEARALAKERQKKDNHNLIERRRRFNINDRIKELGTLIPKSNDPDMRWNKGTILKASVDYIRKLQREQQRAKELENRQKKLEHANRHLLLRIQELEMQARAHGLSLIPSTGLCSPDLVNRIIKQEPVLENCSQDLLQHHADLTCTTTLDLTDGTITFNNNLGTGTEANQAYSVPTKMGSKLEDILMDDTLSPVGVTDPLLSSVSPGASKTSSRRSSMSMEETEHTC
Experiment: reducers of TRPM1 reporter luminescence, concentration series – cell-based, SK-MEL-5, cherry-picked, set 3, MITF inhibitor project, dose response (AID 493073);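 also: SK-MEL-5 melanoma cells with luciferase driven by the MITF target TRPM1 promoter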
Assay type: functional
The source made the active and inactive calls. No rule for the calls is given here.
Measurement label: AC50

molecule="O=C(c1ccc(F)cc1)C(CN1CCOCC1)c1ccccc1 (configuration not stated)" experimental_result="5.96 µM (active)"
molecule=COC(=O)c1ccc(Nc2cc(C)nc3ccc(C)cc23)cc1 experimental_result="6.85 µM (active)"
molecule=COc1cc2c(cc1O)C(SC)=NC(C)(C)C2 experimental_result="11.3 µM (active)"
molecule=O=C(N/N=C/c1ccc([N+](=O)[O-])o1)c1sc2ccccc2c1Cl experimental_result="4.61 µM (active)"
molecule=O=C(N/N=C\c1ccc([N+](=O)[O-])s1)c1cncc(Br)c1 experimental_result="4.34 µM (active)"
molecule=COc1cc(NC(=O)COc2cc(O)c3c(c2)OC(C)(C)CC3=O)cc(OC)c1OC experimental_result="5.36 µM (active)"
molecule=COC1=C(Nc2ccc(O)cc2)C(=O)c2ccccc2C1=O experimental_result="5.14 µM (active)"
molecule=CN(C)c1ccc(NC(=S)c2ccccn2)cc1 experimental_result="2.84 µM (active)"
molecule=CCOc1ccc(NC(=O)c2ccccn2)cc1 experimental_result="4.4 µM (active)"
molecule=COc1ccc(N(Cc2cc(O)nc3ccccc23)C(=O)CCl)cc1 experimental_result="10.9 µM (active)"
molecule=C=CCN1C(=O)/C(=C/c2cc(C)n(-c3cccnc3)c2C)C(=O)NC1=S experimental_result="16.8 µM (active)"
molecule=CC1CCN(Cc2nc(-c3ccc(Cl)cc3)no2)CC1 experimental_result="7.62 µM (active)"
